// provenance: patent US20120214822A1

Target: human active recombinant p38α-6His tagged (Homo sapiens, UniProt Q16539)
Sequence (Q16539 whole entry): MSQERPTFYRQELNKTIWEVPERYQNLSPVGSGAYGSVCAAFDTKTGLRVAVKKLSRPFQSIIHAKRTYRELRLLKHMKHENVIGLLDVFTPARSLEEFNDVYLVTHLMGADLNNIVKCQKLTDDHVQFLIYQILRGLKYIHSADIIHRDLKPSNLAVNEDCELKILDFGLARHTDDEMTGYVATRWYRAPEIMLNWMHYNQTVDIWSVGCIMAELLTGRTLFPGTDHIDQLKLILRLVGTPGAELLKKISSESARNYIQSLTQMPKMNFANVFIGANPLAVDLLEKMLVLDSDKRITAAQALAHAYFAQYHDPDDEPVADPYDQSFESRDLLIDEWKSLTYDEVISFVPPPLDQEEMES
Assay: P38 Alpha Enzyme Assay (AlphaScreen, biotinylated-ATF2 substrate);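 further: 0.5 nM final p38α, reaction started with ATP and run 45 min at 37 °C, phospho-ATF2 read by antibody-based AlphaScreen, background wells quenched with EDTA before ATP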
Type: biochemical
Settings: p38 alpha enzyme inhibition; means of replicate determinations; 4 h pre-incubation at 37° C.; SD of assay 0.2-0.3 log units
observation.type: pIC50
In your answer, state the number alone without any accompanying words.

Cc1c(F)cc(C(=O)NC2CC2)cc1-n1ccnc(NC(C)(C)c2ccccc2OCCNCC(=O)O)c1=O    9.8
CNCCCCOc1ccccc1C(C)(C)Nc1nccn(-c2cc(C(=O)NC3CC3)ccc2C)c1=O    9.8
Cc1ccc(C(=O)NC2CC2)cc1-n1ccnc(NCc2cccc(F)c2)c1=O    7
Cc1ccc(C(=O)NC2CC2)cc1-n1ccnc(NC2(c3ccccc3OCCNC(C)C)CC2)c1=O    10.3
Cc1ccc(C(=O)NC2CC2)cc1-n1ccnc(NC2(c3ccccc3OCCN[C@H](C)CO)CC2)c1=O    9.9

Record lookup: for human active recombinant p38α-6His tagged (Homo sapiens, UniProt Q16539), what pIC50 belongs to "Cc1ccc(C(=O)NC2CC2)cc1-n1ccnc(NC(C)(C)c2ccccc2OCCN2CCCCC2)c1=O" ?
9.1

* * *

The molecules listed here are annotated with their pIC50.
Target: human active recombinant p38α-6His tagged (Homo sapiens)
Assay: P38 Alpha Enzyme Assay (AlphaScreen, biotinylated-ATF2 substrate)
Type: biochemical
Conditions: p38 alpha enzyme inhibition; means of replicate determinations; 4 h pre-incubation at 37° C.; SD of assay 0.2-0.3 log units
In your answer, state the number alone without any accompanying words.

Worked examples, 3 molecules total:
Cc1ccc(C(=O)NC2CC2)cc1-n1ccnc(N[C@@H](c2ccccc2)[C@@H](C)CN2CCC[C@H]2C)c1=O [Example 184]    8.7
Cc1c(F)cc(C(=O)NC2CC2)cc1-n1ccnc(NC(C)(C)c2ccccc2SCCN)c1=O [Example 321]    9.7
Cc1ccc(C(=O)NC2CC2)cc1-n1ccnc(NC(C)(C)c2ccccc2OCCN2CCOCC2)c1=O [Example 203]    8.9

For the molecule COC[C@@H]1CCCN1C[C@@H](C)[C@@H](Nc1nccn(-c2cc(C(=O)NC3CC3)ccc2C)c1=O)c1ccccc1 [Example 150] , what pIC50 is on record?
7.9

For the molecule Cc1ccc(C(=O)NC2CC2)cc1-n1ccnc(NCc2ccc(CN)cc2)c1=O [Example 125] , what pIC50 is on record?
6.2

For the molecule COC[C@H]1CCCN1C[C@@H](C)[C@@H](Nc1nccn(-c2cc(C(=O)NC3CC3)ccc2C)c1=O)c1ccccc1 [Example 148] , what pIC50 is on record?
8.1

For the molecule Cc1cccc(CNc2nccn(-c3cc(C(=O)NC4CC4)ccc3C)c2=O)c1 [Example 46] , what pIC50 is on record?
8

For the molecule Cc1ccc(C(=O)NC2CC2)cc1-n1ccnc(NC2(c3ccccc3OCCN3CCc4c(ncn4C)C3)CC2)c1=O [Example 297] , what pIC50 is on record?
9.4

For the molecule Cc1ccccc1[C@H](Nc1nccn(-c2cc(C(=O)NC3CC3)ccc2C)c1=O)[C@@H](C)CO [Example 272] , what pIC50 is on record?
8.5

For the molecule CCNCCOc1ccccc1C(CC)(CC)Nc1nccn(-c2cc(C(=O)NC3CC3)ccc2C)c1=O [Example 267] , what pIC50 is on record?
9.5

For the molecule Cc1ccc(C(=O)NC2CC2)cc1-n1ccnc(N[C@@H](c2cccc3ccccc23)[C@@H](C)CN2CCCC2)c1=O [Example 144] , what pIC50 is on record?
7.9

For the molecule CC(=O)N1CCN(C[C@H](C)[C@@H](Nc2nccn(-c3cc(C(=O)NC4CC4)ccc3C)c2=O)c2ccccc2)CC1 [Example 140] , what pIC50 is on record?
8.6

For the molecule Cc1ccc(C(=O)NC2CC2)cc1-n1ccnc(Oc2ccccc2)c1=O [Example 116] , what pIC50 is on record?
6.4

For the molecule Cc1ccc(C(=O)NC2CC2)cc1-n1ccnc(N[C@@H](c2ccccc2)[C@@H](C)CNC(C)(C)C)c1=O [Example 153] , what pIC50 is on record?
9.2
